Assay: Plasma prodrug and nucleoside pharmacokinetics after single oral dose in cynomolgus monkeys
Type: in vivo
Settings: single oral 10 mg/kg, normalized to 1 μmol/kg dose, read-out: Plasma nucleoside Cmax
measure-name: Cmax

>>> endpoint_result("CC(C)OC(=O)[C@@H](C)NP(=O)(OC[C@H]1O[C@@H](n2ccc(=O)[nH]c2=O)[C@](C)(Cl)[C@@H]1O)Oc1ccccc1 (single isomer, unassigned; diastereomer 1) [Compound 40i Diastereomer 1]")
"15 to 50 nM"

* * *

Assay: Liver triphosphate pharmacokinetics after single oral dose in CD-1 mice;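 note: pmol/g liver normalized to a 1 µmol/kg dose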
Assay type: in vivo
Conditions: single oral dose 10 mg/kg in PEG 200
measure-name: Ms Liver TP Cmax

>>> endpoint_result("CCOC(=O)[C@H](C)NP(=O)(OC[C@H]1O[C@@H](n2ccc(=O)[nH]c2=O)[C@](C)(Cl)[C@@H]1O)Oc1ccccc1 (single isomer, unassigned; diastereomer 2) [Compound 203ii Diastereomer 2]")
"++ (15 < ++ ≤ 50)"
>>> endpoint_result("CCCCOC(=O)[C@@H](C)NP(=O)(OC[C@H]1O[C@@H](n2ccc(=O)[nH]c2=O)[C@](C)(Cl)[C@@H]1O)Oc1ccccc1 (single isomer, unassigned) [Compound 202i Diastereomer 1]")
"++++ (100 < ++++)"
>>> endpoint_result("C[C@@]1(Cl)[C@H](O)[C@@H](CO)O[C@H]1n1ccc(=O)[nH]c1=O")
"BLQ"
>>> endpoint_result("CCOC(=O)[C@H](CC(C)C)NP(=O)(OC[C@H]1O[C@@H](n2ccc(=O)[nH]c2=O)[C@](C)(Cl)[C@@H]1O)Oc1ccccc1 (single isomer, unassigned; diastereomer 1) [Compound 204ii Diastereomer 1]")
"++ (15 < ++ ≤ 50)"
>>> endpoint_result("CCOC(=O)NCC(C)(C)C(=O)SCCOP1(=O)OC[C@H]2O[C@@H](n3ccc(=O)[nH]c3=O)[C@](C)(Cl)[C@@H]2O1 (single isomer, unassigned) [Compound 70 Single Diastereomer]")
"++++ (100 < ++++)"
>>> endpoint_result("CCOc1nc(N)nc2c1ncn2[C@@H]1O[C@H](COP(=O)(N[C@@H](C)C(=O)OC(C)C)Oc2ccccc2)[C@@H](O)[C@@]1(C)Cl (single isomer, unassigned) [Compound 17ii Diastereomer 1]")
"BLQ"
>>> endpoint_result("C[C@@H](NP(=O)(OC[C@H]1O[C@@H](n2ccc(=O)[nH]c2=O)[C@](C)(Cl)[C@@H]1O)Oc1ccccc1)C(=O)OCc1ccccc1 (single isomer, unassigned) [Compound 205i Diastereomer 1]")
"++++ (100 < ++++)"

* * *

Test: Plasma nucleoside pharmacokinetics after single oral dose in CD-1 mice
Type: in vivo
Conditions: single oral dose 10 mg/kg in PEG 200
Method: Plasma samples were analyzed for nucleoside by LC-MS/MS. The internal standard (IS) was either 2′-MeG-D3 or tiapride. For protein precipitation and extraction, each plasma sample (50 μL) was treated with 500 μL of 0.2% formic acid in acetonitrile and 20 μL of the internal standard working solution. […] The analytes were detected and quantified by tandem mass spectrometry in positive ion mode on an MDS Sciex API5000 equipped with a Turbo Ionspray® interface. […]
measure-name: Ms Plasma nucleoside Cmax

>>> endpoint_result("CC(C)C(=O)OC[C@H](C)NP1(=O)OC[C@H]2O[C@@H](n3cnc4c(N)ncnc43)[C@](C)(Cl)[C@@H]2O1 (single isomer, unassigned; diastereomer 2) [Compound 95i Diastereomer 2]")
"+ (+ ≤ 15)"
>>> endpoint_result("CCCCOC(=O)[C@@H](C)NP(=O)(OC[C@H]1O[C@@H](n2ccc(=O)[nH]c2=O)[C@](C)(Cl)[C@@H]1O)Oc1ccccc1 (single isomer, unassigned) [Compound 202i Diastereomer 2]")
"++++ (100 < ++++)"
>>> endpoint_result("CC(C)(C)C(=O)SCCOP1(=O)OC[C@H]2O[C@@H](n3ccc(N)nc3=O)[C@](C)(Cl)[C@@H]2O1 (single isomer, unassigned) [Compound 61 Diastereomer 1]")
"++++ (100 < ++++)"
>>> endpoint_result("CCOC(=O)[C@H](C)NP(=O)(OC[C@H]1O[C@@H](n2ccc(=O)[nH]c2=O)[C@](C)(Cl)[C@@H]1O)Oc1ccccc1 (single isomer, unassigned; diastereomer 2) [Compound 203ii Diastereomer 2]")
"+++ (50 < +++ ≤ 100)"
>>> endpoint_result("CC(C)OC(=O)[C@H](C)NP1(=O)OC[C@H]2O[C@@H](n3ccc(=O)[nH]c3=O)[C@](C)(Cl)[C@@H]2O1 (single isomer, unassigned; diastereomer 2) [Compound 38ii Diastereomer 2]")
"++++ (100 < ++++)"
>>> endpoint_result("CC(C)OP1(=O)OC[C@H]2O[C@@H](n3ccc(=O)[nH]c3=O)[C@](C)(Cl)[C@@H]2O1 (single isomer, unassigned) [Compound 37 Diastereomer 2]")
"+++ (50 < +++ ≤ 100)"
>>> endpoint_result("CCCCOC(=O)[C@H](C)NP(=O)(OC[C@H]1O[C@@H](n2ccc(=O)[nH]c2=O)[C@](C)(Cl)[C@@H]1O)Oc1ccccc1 (single isomer, unassigned; diastereomer 1) [Compound 202ii Diastereomer 1]")
"++++ (100 < ++++)"
>>> endpoint_result("CC(C)OC(=O)[C@H](C)NP1(=O)OC[C@H]2O[C@@H](n3cnc4c(N)ncnc43)[C@](C)(Cl)[C@@H]2O1 (single isomer, unassigned; diastereomer 1) [Compound 77ii Diastereomer 1]")
"+ (+ ≤ 15)"

* * *

Assay: in vitro
Conditions: human
Readings of CC50 for the listed molecules
measure-name: CC50

>>> endpoint_result("CC(C)OC(=O)[C@H](C)NP(=O)(OC[C@H]1O[C@@H](n2cc(F)c3c(N)ncnc32)[C@](C)(Cl)[C@@H]1O)Oc1ccccc1 (single isomer, unassigned) [Compound 207ii Diastereomer 1]")
"> 50 µM"
>>> endpoint_result("C[C@@]1(Cl)[C@H](O)[C@@H](CO)O[C@H]1n1ccc(N)nc1=O")
"> 50 µM"
>>> endpoint_result("C[C@@]1(Cl)[C@H](O)[C@@H](CO)O[C@H]1n1ccc(=O)[nH]c1=O")
"> 50 µM"

* * *

Test: Liver triphosphate pharmacokinetics after single oral dose in CD-1 mice;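 note: pmol/g liver normalized to a 1 µmol/kg dose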
Format: in vivo
Conditions: single oral dose 10 mg/kg in PEG 200
Experimental: Internal standard solution was added to the homogenate followed by neutralization with 20% ammonium hydroxide solution and addition of 500 μL 1% formic acid. The tissue samples were extracted by weak anion exchange solid phase extraction (SPE). Post extraction, the eluates were evaporated under nitrogen, followed by reconstitution before injection onto the LC-MS/MS system.
measure-name: Ms Liver TP Cmax

>>> endpoint_result("CC(C)OC(=O)[C@H](C)NP(=O)(OC[C@H]1O[C@@H](n2ccc(=O)[nH]c2=O)[C@](C)(Cl)[C@@H]1O)Oc1ccccc1 (single isomer, unassigned) [Compound 40ii Diastereomer 2]")
"++ (15 < ++ ≤ 50)"
>>> endpoint_result("CCCCOC(=O)[C@@H](C)NP(=O)(OC[C@H]1O[C@@H](n2ccc(=O)[nH]c2=O)[C@](C)(Cl)[C@@H]1O)Oc1ccccc1 (single isomer, unassigned) [Compound 202i Diastereomer 2]")
"++++ (100 < ++++)"
>>> endpoint_result("CC(C)OC(=O)[C@H](C)NP(=O)(OC[C@H]1O[C@@H](n2ccc3c(N)ncnc32)[C@](C)(Cl)[C@@H]1O)Oc1ccccc1 (single isomer, unassigned) [Compound 208ii Diastereomer 1]")
"BLQ"
>>> endpoint_result("CC(C)OC(=O)[C@H](C)NP1(=O)OC[C@H]2O[C@@H](n3ccc(=O)[nH]c3=O)[C@](C)(Cl)[C@@H]2O1 (single isomer, unassigned; diastereomer 2) [Compound 38ii Diastereomer 2]")
"++ (15 < ++ ≤ 50)"
>>> endpoint_result("CC(C)OC(=O)[C@H](C)NP1(=O)OC[C@H]2O[C@@H](n3cnc4c(N)ncnc43)[C@](C)(Cl)[C@@H]2O1 (single isomer, unassigned; diastereomer 1) [Compound 77ii Diastereomer 1]")
"++++ (100 < ++++)"
>>> endpoint_result("CC(C)(CO)C(=O)SCCOP(=O)(NCc1ccccc1)OC[C@H]1O[C@@H](n2ccc(=O)[nH]c2=O)[C@](C)(Cl)[C@@H]1O (single isomer, unassigned) [Compound 54 Diastereomer 1]")
"++ (15 < ++ ≤ 50)"
>>> endpoint_result("C[C@@H](NP(=O)(OC[C@H]1O[C@@H](n2ccc(=O)[nH]c2=O)[C@](C)(Cl)[C@@H]1O)Oc1ccccc1)C(=O)OCc1ccccc1 (single isomer, unassigned) [Compound 205i Diastereomer 2]")
"++++ (100 < ++++)"
>>> endpoint_result("CC(C)OC(=O)[C@H](C)NP(=O)(OC[C@H]1O[C@@H](n2ccc3c(N)ncnc32)[C@](C)(Cl)[C@@H]1O)Oc1ccccc1 (single isomer, unassigned) [Compound 208ii Diastereomer 2]")
"BLQ"

* * *

Test system: Zluc + CES1 cells
Experiment: Cytotoxicity in Zluc cells transfected with human CES1
Assay type: cell-based
Conditions: Zluc cells transiently transfected with human CES1
measure-name: CC50

>>> endpoint_result("CC(C)(CO)C(=O)SCCOP(=O)(NCc1ccccc1)OC[C@H]1O[C@@H](n2cnc3c(=O)[nH]c(N)nc32)[C@](C)(O)[C@@H]1O (stereo partly shown)")
"> 50 µM"

Value source: patent US10513534B2
